Hello, the source for this data is ChEMBL document CHEMBL3885881, in case you need it.

Species: Rattus norvegicus
TEST: DrugMatrix - Regimen: Daily Repeat
Format: toxicity, organism-based, Sprague-Dawley
Design: regimen Daily Repeat, gender Male, age 6-8 weeks
MEASUREMENT_PARAMETERS: in vivo, po, 1500 mg/kg, 72 h, tissue Blood, route oral GAVAGE, dose level High, time 3 day, vehicle .5 % CMC
Measured ABSOLUTE SEGMENTED NEUTROPHIL, listed per entry.
Please state the figure in CELLS/uL; there is no need to write the unit.

- MOLECULE: "CO[C@H]1/C=C/O[C@@]2(C)Oc3c(C)c(O)c4c(c3C2=O)C2=NC3(CCN(CC(C)C)CC3)NC2=C(NC(=O)/C(C)=C\\C=C\\[C@H](C)[C@H](O)[C@@H](C)[C@@H](O)[C@@H](C)[C@H](OC(C)=O)[C@@H]1C)C4=O"
  UNIT_TEXT: "CELLS/uL"
  ASSAY_RESULT: 2847
- MOLECULE: "Cc1ccc(S(=O)(=O)NC(=O)NN2CC3CCCC3C2)cc1 (configuration not stated) [GLICLAZIDE]"
  UNIT_TEXT: "CELLS/uL"
  ASSAY_RESULT: 2117.33
- MOLECULE: "C[C@]1(Cn2ccnn2)[C@H](C(=O)O)N2C(=O)C[C@H]2S1(=O)=O"
  UNIT_TEXT: "CELLS/uL"
  ASSAY_RESULT: 838
- MOLECULE: "NC(=O)c1cnccn1 [PYRAZINAMIDE]"
  UNIT_TEXT: "CELLS/uL"
  ASSAY_RESULT: 1061.67
- MOLECULE: "O=C(N[C@H](CO)[C@H](O)c1ccc([N+](=O)[O-])cc1)C(Cl)Cl"
  UNIT_TEXT: "CELLS/uL"
  ASSAY_RESULT: 793.33

GET /values?readout=ABSOLUTE SEGMENTED NEUTROPHIL&item= CNC(=C[N+](=O)[O-])NCCSCc1ccc(CN(C)C)o1
1162

GET /values?readout=ABSOLUTE SEGMENTED NEUTROPHIL&item= Cc1cc(=O)n(-c2ccccc2)n1C [ANTIPYRINE]
1207.33

* * *

Measured TOTAL PROTEIN, listed per entry.
Organism: Rattus norvegicus
TEST: DrugMatrix - Regimen: Daily Repeat
Type: toxicity, organism-based, Sprague-Dawley
Parameters: regimen Daily Repeat, gender Male, age 6-8 weeks
MEASUREMENT_PARAMETERS: in vivo, po, 10 mg/kg, 120 h, tissue Plasma, route oral GAVAGE, dose level Low, time 5 day, […]
Please state the figure in G/DL; there is no need to write the unit.

Observe how each entry below is paired with its result.
- COMPOUND: "CCOC(=O)C1=C(C)NC(C)=C(C(=O)OC)C1c1cccc([N+](=O)[O-])c1 (centres undefined)"
  TOTAL PROTEIN (G/DL): 6.03
- COMPOUND: "CC(C)CC(N(C)C)C1(c2ccc(Cl)cc2)CCC1 (centres undefined)"
  TOTAL PROTEIN (G/DL): 5.57
- COMPOUND: "COc1ccc2cc([C@H](C)C(=O)O)ccc2c1"
  TOTAL PROTEIN (G/DL): 5.4

Here's the next entry for you.
GET /values?readout=TOTAL PROTEIN&item= COCCOC(=O)C1=C(C)NC(C)=C(C(=O)OC(C)C)C1c1cccc([N+](=O)[O-])c1 (centres undefined)
6.2
